molecular target: COX-2 (Mus musculus); assay: Evaluation of COX-2 activity: PGE2 formation in aspirin-treated, LPS-stimulated mouse peritoneal macrophages; assay type: cell-based
Sequence (Q05769 18-604): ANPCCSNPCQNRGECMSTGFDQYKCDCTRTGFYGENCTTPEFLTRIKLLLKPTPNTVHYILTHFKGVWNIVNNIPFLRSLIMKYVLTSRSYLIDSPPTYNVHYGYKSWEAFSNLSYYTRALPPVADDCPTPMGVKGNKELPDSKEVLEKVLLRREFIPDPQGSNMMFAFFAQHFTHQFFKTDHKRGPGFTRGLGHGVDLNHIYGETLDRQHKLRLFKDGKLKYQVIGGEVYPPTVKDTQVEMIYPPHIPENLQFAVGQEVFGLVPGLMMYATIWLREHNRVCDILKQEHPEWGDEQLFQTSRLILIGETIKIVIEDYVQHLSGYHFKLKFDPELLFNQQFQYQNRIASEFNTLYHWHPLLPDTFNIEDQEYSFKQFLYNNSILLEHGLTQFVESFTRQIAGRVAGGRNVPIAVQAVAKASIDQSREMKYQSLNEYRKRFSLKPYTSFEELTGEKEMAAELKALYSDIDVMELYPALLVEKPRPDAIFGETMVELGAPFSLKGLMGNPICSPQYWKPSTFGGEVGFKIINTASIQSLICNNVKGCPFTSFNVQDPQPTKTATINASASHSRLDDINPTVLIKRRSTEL
Rule: IC50, μg/ml COX-2 below 0.03 µg/mL gives Y. Equal to or above 0.03 µg/mL gives N.

                            compound_smiles  assigned_class
0  CC1(C)OC(c2ccc(S(N)(=O)=O)cc2F)=C(c2cccc(F)c2)C1=O               Y
1  CC1(C)OC(c2ccc(S(C)(=O)=O)c(Br)c2)=C(c2cc(F)ccc2F)C1=O               N
2  CC1(C)OC(c2ccc(S(C)(=O)=O)cc2)=C(c2cccc(N)c2)C1=O               N
3  CC1(C)OC(c2ccc(S(N)(=O)=O)cc2)=C(c2ccc(O)cc2)C1=O               Y
